molecular target: Protein RecA (Mycobacterium tuberculosis (strain ATCC 25618 / H37Rv)) (UniProt P9WHJ3); assay: Mtb RecA intein splicing inhibitors, primary screen, biochemical, fluorescence, HTS (AID 2221); conditions: cell-free RecA intein splicing, hits give high values, concentration not given here;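 note: 0% = vehicle wells and 100% = reference inhibitor control wells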
Sequence (P9WHJ3 whole entry, looked up): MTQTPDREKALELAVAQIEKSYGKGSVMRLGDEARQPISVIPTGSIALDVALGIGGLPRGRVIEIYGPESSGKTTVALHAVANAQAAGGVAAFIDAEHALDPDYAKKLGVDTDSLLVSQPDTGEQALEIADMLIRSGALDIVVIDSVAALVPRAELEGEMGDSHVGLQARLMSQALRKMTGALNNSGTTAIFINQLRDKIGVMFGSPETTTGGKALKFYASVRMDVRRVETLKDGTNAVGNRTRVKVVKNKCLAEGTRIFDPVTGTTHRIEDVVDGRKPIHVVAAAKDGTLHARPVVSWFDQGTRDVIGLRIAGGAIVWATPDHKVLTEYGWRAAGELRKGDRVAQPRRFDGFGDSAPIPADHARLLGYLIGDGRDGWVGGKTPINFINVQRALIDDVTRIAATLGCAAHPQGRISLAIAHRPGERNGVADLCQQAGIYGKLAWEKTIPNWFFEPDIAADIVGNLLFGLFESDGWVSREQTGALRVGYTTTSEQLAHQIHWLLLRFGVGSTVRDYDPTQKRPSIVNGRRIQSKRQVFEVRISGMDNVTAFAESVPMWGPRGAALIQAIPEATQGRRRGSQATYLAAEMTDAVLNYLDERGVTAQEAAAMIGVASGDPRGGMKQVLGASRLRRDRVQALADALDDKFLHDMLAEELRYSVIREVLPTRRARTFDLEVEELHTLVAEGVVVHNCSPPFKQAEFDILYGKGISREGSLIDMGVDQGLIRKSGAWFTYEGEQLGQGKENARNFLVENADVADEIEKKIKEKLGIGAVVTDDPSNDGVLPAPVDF
About 2,200 (0.76%) of roughly 290,000 compounds were called active. The sample as a whole holds a higher share of actives than the screen did.
// inhibition lookup, one value per entry

# Structure As Smiles, System Under Test, Measurement Units, inhibition
data = [
    ("CCN(CC)C(=O)CN(c1cccc([N+](=O)[O-])c1)S(=O)(=O)c1ccccc1", "Protein RecA (Mycobacterium tuberculosis (strain ATCC 25618 / H37Rv)) (UniProt P9WHJ3)", "%", 0.016),
    ("COc1ccc(C(=O)NC2CC(C)(C)NC(C)(C)C2)cc1OC", "Protein RecA (Mycobacterium tuberculosis (strain ATCC 25618 / H37Rv)) (UniProt P9WHJ3)", "%", 0.554),
    ("O=C(CCCN1C(=O)/C(=C/c2ccccc2)SC1=S)Nc1ccc(O)cc1", "Protein RecA (Mycobacterium tuberculosis (strain ATCC 25618 / H37Rv)) (UniProt P9WHJ3)", "%", 45.1),
    ("O=C(CCCN1C(=O)/C(=C\\c2ccccc2)SC1=S)Nc1ccccc1O", "Protein RecA (Mycobacterium tuberculosis (strain ATCC 25618 / H37Rv)) (UniProt P9WHJ3)", "%", -1.47),
    ("CC(C)[C@H](NC(=O)OCc1ccccc1)C(=O)OCc1ccccc1", "Protein RecA (Mycobacterium tuberculosis (strain ATCC 25618 / H37Rv)) (UniProt P9WHJ3)", "%", 7.54),
    ("Cc1ccc(/C=C2\\SC(=S)N(CCC(=O)Nc3ccc(O)cc3)C2=O)cc1", "Protein RecA (Mycobacterium tuberculosis (strain ATCC 25618 / H37Rv)) (UniProt P9WHJ3)", "%", 3.35),
    ("Cc1ccc(S(=O)(=O)N(Cc2cccc([N+](=O)[O-])c2)C(=O)N2CCN(C)CC2)cc1", "Protein RecA (Mycobacterium tuberculosis (strain ATCC 25618 / H37Rv)) (UniProt P9WHJ3)", "%", 1.46),
]
